- Tested on: HepG2
- experimentalDetails: Cytotoxicity: viability of uninfected HepG2 cells
- Format: cell-based
- conditionLabel: Table 1; uninfected cells; read-out: HBV CC50 (HepG2)
measuredParameter: CC50

>>> df
                                   compound  measurement
0  CCCCCCCCCCSSCCOP(=O)(O)CO[C@H](C)Cn1cnc2c(N)ncnc21.N [Compound 11a]      > 50 µM
1  CCCCCCCCCCCCSSCCOP(=O)(O)CO[C@H](C)Cn1cnc2c(N)ncnc21.N [Compound 11b]      > 50 µM
2  C[C@H](Cn1cnc2c(N)ncnc21)OCP(=O)(O)OCCSSCCO [DTE-TFV, reference compound]     > 100 µM
3  CCCCCCCCCCCCCCCCCCSSCCOP(=O)(O)CO[C@H](C)Cn1cnc2c(N)ncnc21.N [Compound 11e]      > 50 µM
4  CCCCCCCCCCCCCCSSCCOP(=O)(O)CO[C@H](C)Cn1cnc2c(N)ncnc21.N [Compound 11c]      > 25 µM

====

- Tested on: HIV-1
- experimentalDetails: microbe, parasite or virus in culture
- conditionLabel: Table 1; PBMCs
measuredParameter: HIV-1 TI (CC50/EC50)

In [3]: df
Out[3]:
                                   compound  measurement
0  CCCCCCCCCCCCCCCCSSCCOP(=O)(O)COC(C)Cn1cnc2c(N)ncnc21 (stereo not drawn) [Compound 11d]       22,000
1  CCCCCCCCCCSSCCOP(=O)(O)CO[C@H](C)Cn1cnc2c(N)ncnc21.N [Compound 11a]         >590
2  CCCCCCCCCCCCCCCCCCSSCCOP(=O)(O)CO[C@H](C)Cn1cnc2c(N)ncnc21.N [Compound 11e]       11,000
3  CCCCCCCCCCCCSSCCOP(=O)(O)CO[C@H](C)Cn1cnc2c(N)ncnc21.N [Compound 11b]        8,300
4  C[C@H](Cn1cnc2c(N)ncnc21)OCP(=O)(O)OCCSSCCO [DTE-TFV, reference compound]        >62.1
5  CCCCCCCCCCCCCCSSCCOP(=O)(O)CO[C@H](C)Cn1cnc2c(N)ncnc21.N [Compound 11c]       28,000

====

- Test system: HBV
- experimentalDetails: Antiviral activity against HBV in HepG2.2.15 cells, viral DNA by qPCR after 6 days
- conditionLabel: read-out: HBV EC50 (HepG2); Table 2
measuredParameter: EC50

>>> df
                                   compound  measurement
0  CCCCCCCCCCCCCCCCCCSSCCOP(=O)(CO[C@H](C)Cn1cnc2c(N)ncnc21)OCCSSCCCCCCCCCCCCCCCCCC [Compound 12e]      > 25 µM
1  CCCCCCCCCCCCCCCCSSCCOP(=O)(CO[C@H](C)Cn1cnc2c(N)ncnc21)OCCSSCCCCCCCCCCCCCCCC [Compound 12d]      > 25 µM
2  CCCCCCCCCCCCSSCCOP(=O)(CO[C@H](C)Cn1cnc2c(N)ncnc21)OCCSSCCCCCCCCCCCC [Compound 12b]     > 100 µM
3  CCCCCCCCCCSSCCOP(=O)(CO[C@H](C)Cn1cnc2c(N)ncnc21)OCCSSCCCCCCCCCC [Compound 12a]     > 100 µM
4  CCCCCCCCCCCCCCSSCCOP(=O)(CO[C@H](C)Cn1cnc2c(N)ncnc21)OCCSSCCCCCCCCCCCCCC [Compound 12c]     > 100 µM

====

- experimentalDetails: Cytotoxicity: viability of uninfected HepG2 cells
- Assay type: cell-based
- conditionLabel: human, uninfected HepG2 cells; Table 1; uninfected cells; read-out: HBV CC50 (HepG2)
measuredParameter: CC50

>>> df
                                   compound  measurement
0  CCCCCCCCCCCCCCCCSSCCOP(=O)(O)COC(C)Cn1cnc2c(N)ncnc21 (stereo not shown) [Compound 11d]      > 25 µM

====

- System: HIV-1
- experimentalDetails: microbe, parasite or virus in culture
- conditionLabel: Table 4; HIV-1, PBMCs
measuredParameter: TI(CC50/EC50)

                                   compound  measurement
0  CCCCCCCCCCCCCCCCSSCCOP(=O)(COC(C)Cn1cnc2c(N)ncnc21)OCC(C)(C)C (mixture of isomers)         >700
1  CCCCCCCCCCCCCCCCSSCCOP(=O)(COC(C)Cn1cnc2c(N)ncnc21)OCC (mixture of isomers)          104
2  CCCCCCCCCCCCCCCCSSCCOP(=O)(COC(C)Cn1cnc2c(N)ncnc21)OCCCC (mixture of isomers)          150
3  CCCCCCCCCCCCCCCCSSCCOP(=O)(COC(C)Cn1cnc2c(N)ncnc21)OC(C)CC (mixture of isomers)          480
4  CCCCCCCCCCCCCCCCSSCCOP(=O)(COC(C)Cn1cnc2c(N)ncnc21)OCc1ccccc1 (mixture of isomers)        2,300
5  CCCCCCCCCCCCCCCCCCOP(=O)(COC(C)Cn1cnc2c(N)ncnc21)OCCSSCCCCCCCCCCCCCCCC (mixture of isomers)          >50
6  CCCCCCCCCCCCCCCCSSCCOP(=O)(COC(C)Cn1cnc2c(N)ncnc21)OC (mixture of isomers)        1,500
7  CCCCCCCCCCCCCCCCSSCCOP(=O)(COC(C)Cn1cnc2c(N)ncnc21)Nc1ccccc1 (mixture of isomers)        7,000
8  CCCCCCCCCCCCCCCCSSCCOP(=O)(COC(C)Cn1cnc2c(N)ncnc21)OCCC (mixture of isomers)         49.0

====

- System: HepG2
- experimentalDetails: Cytotoxicity: viability of uninfected HepG2 cells
- Assay type: cell-based
- conditionLabel: Table 2; read-out: HBV CC50 (HepG2)
measuredParameter: CC50

>>> print(df.to_string())
                                   molecule  measuredparameter  measurement
0  CCCCCCCCCCCCCCCCCCSSCCOP(=O)(CO[C@H](C)Cn1cnc2c(N)ncnc21)OCCSSCCCCCCCCCCCCCCCCCC [Compound 12e]               CC50      > 25 µM
1  CCCCCCCCCCCCSSCCOP(=O)(CO[C@H](C)Cn1cnc2c(N)ncnc21)OCCSSCCCCCCCCCCCC [Compound 12b]               CC50     > 100 µM
2  CCCCCCCCCCCCCCSSCCOP(=O)(CO[C@H](C)Cn1cnc2c(N)ncnc21)OCCSSCCCCCCCCCCCCCC [Compound 12c]               CC50     > 100 µM
3  CCCCCCCCCCCCCCCCSSCCOP(=O)(CO[C@H](C)Cn1cnc2c(N)ncnc21)OCCSSCCCCCCCCCCCCCCCC [Compound 12d]               CC50      > 25 µM
4  CCCCCCCCCCSSCCOP(=O)(CO[C@H](C)Cn1cnc2c(N)ncnc21)OCCSSCCCCCCCCCC [Compound 12a]               CC50     > 100 µM

====

- Tested on: HIV-1
- experimentalDetails: microbe, parasite or virus in culture
- conditionLabel: read-out: HIV-1 EC50 (PBMCs); Table 2
- Protocol: Compounds synthesized were evaluated against HIV-infected PBMCs and antiviral activity was assessed by measuring reverse transcriptase in cell supernatants. Compounds 11a-e, 12a-e, and 13 were assayed against HBV and qPCR was used to quantify viral DNA following incubation in HepG2.2.15 cells after 6 days.
Measured log10 of EC50, listed per entry for reference.
measuredParameter: log10 of EC50 (log10 of the value in nM)

>>> print(df.to_string())
                                   molecule  measuredparameter  measurement
0  CCCCCCCCCCSSCCOP(=O)(CO[C@H](C)Cn1cnc2c(N)ncnc21)OCCSSCCCCCCCCCC [Compound 12a]      log10 of EC50         2.54
1  CCCCCCCCCCCCCCSSCCOP(=O)(CO[C@H](C)Cn1cnc2c(N)ncnc21)OCCSSCCCCCCCCCCCCCC [Compound 12c]      log10 of EC50         2.28
2  CCCCCCCCCCCCCCCCSSCCOP(=O)(CO[C@H](C)Cn1cnc2c(N)ncnc21)OCCSSCCCCCCCCCCCCCCCC [Compound 12d]      log10 of EC50         3.80
3  CCCCCCCCCCCCCCCCCCSSCCOP(=O)(CO[C@H](C)Cn1cnc2c(N)ncnc21)OCCSSCCCCCCCCCCCCCCCCCC [Compound 12e]      log10 of EC50         2.52
4  CCCCCCCCCCCCSSCCOP(=O)(CO[C@H](C)Cn1cnc2c(N)ncnc21)OCCSSCCCCCCCCCCCC [Compound 12b]      log10 of EC50         3.07

Values compiled from patent US11801255B2.
